# Test system: OVCAR-8
# measurement-notes: Antitumor activity against human OVCAR8 cells assessed as reduction of cell growth at 10 uM after 48 hrs by SRB assay
# Format: functional
# Parameters: scale not given: the % may be the effect or the level left
Could you please report measured Activity for the items listed next?
Answers are plain numbers, in %.

Examples with their reported Activity follow.
C[C@]12CCC(=O)C(N)=C1C=C[C@@H]1[C@@H]2CC[C@]2(C)C(=O)CC[C@@H]12.Cl    44.03
CCOC1=C2CC[C@@H]3[C@H](CC[C@]4(C)C(=O)CC[C@@H]34)[C@@]2(C)CCC1=O    98.96
C[C@]12CC[C@H]3[C@@H](CCC4=CC(=O)CC[C@@]43CF)[C@@H]1CCC2=O    94.26

# Activity lookup, item C[C@]12CCC(=O)C(Oc3ccccc3)=C1CC[C@@H]1[C@@H]2CC[C@]2(C)C(=O)CC[C@@H]12 93.48
